assay: log P determination by LC-MS in the acidic range; type: physicochemical; settings: reversed-phase HPLC column (C18), pH 2.7, Table 2, compounds of the formula (I-2); acidic range pH 2.7 or pH 2.3; read-out: log P (acid)
PARAMETER: chromatographic logP

Ask | Fill in the blank: the reported chromatographic logP of O=C(Nc1ncn(Cc2ccccc2Cl)n1)c1cccnc1 is ____.
Reply | 1.22

====

experiment: log P determination by LC-MS in the acidic range; assay type: physicochemical; conditions: LC-MS in the acidic range
PARAMETER: log P (acid)
Just the number, please.

Ask | Field request: log P (acid) | item: Cn1nc(NC(=O)c2cccnc2)c(Br)c1OC(F)F [Compound I-1-47]
Reply | 1.13

Ask | Entry Cc1cc(NC(=O)c2cccnc2)nn1Cc1noc(C(C)(C)C)n1 [Compound I-1-285] : reported log P (acid) = ?
Reply | 1.71

Ask | # get_value(readout='log P (acid)', item= C#CCN(C(=O)c1cccnc1)c1cc(C)n(Cc2ncccn2)n1 [Compound I-1-264] )
Reply | 0.98

Ask | Would you mind telling me what log P (acid) value was observed for Cc1ccn(Cn2nc(NC(=O)c3cccnc3)cc2C)n1 [Compound I-1-192] ?
Reply | 1.16

Ask | Fill in: log P (acid) of Cc1cc(NC(=O)c2cccnc2)nn1C(C)(C)C [Compound I-1-347] is ___
Reply | 1.61

Where do these numbers come from? They come from patent US20160106102A1.
